Can you tell me pIC50 for the items I'm about to list?
Biological target: VIM-1 (Pseudomonas aeruginosa (strain ATCC 15692 / DSM 22644 / CIP 104116 / JCM 14847 / LMG 12228 / 1C / PRS 101 / PAO1))
Test: Enzyme activity: determination of IC50, fluorescence assay with CCF2-FA substrate (VIM-1)
Type: biochemical
Conditions: VIM-1 enzyme, CCF2-FA fluorescence assay; read-out: VIM-1 IC50
pIC50 is a log-scale quantity: -log10 of the concentration expressed in molar.

-- ask Item under review: NS(=O)(=O)c1cccc(-c2cnc3n2CCCC3)c1-c1nnn[nH]1 . Reported pIC50?
-- reply 6.33

-- ask // query: NS(=O)(=O)c1cccc(-c2cccc3sc(Br)nc23)c1-c1nnn[nH]1
-- reply 8.64

-- ask // query: Cc1ccc(-c2cc(-c3cnn(C)c3)cc(S(N)(=O)=O)c2-c2nn[nH]n2)cc1
-- reply 6.65

-- ask // query: CC(CC(=O)O)NCc1ccc(-c2cccc(S(N)(=O)=O)c2-c2nnn[nH]2)cc1 (centres unmarked)
-- reply 6.23

-- ask // query: NS(=O)(=O)c1cccc(-c2ccc(CN3CCCC3CO)cc2)c1-c1nnn[nH]1 (centres unmarked)
-- reply 6.46

---

Target: NDM-1 (Klebsiella pneumoniae, UniProt C7C422)
Sequence (C7C422 whole entry, looked up, species assumed): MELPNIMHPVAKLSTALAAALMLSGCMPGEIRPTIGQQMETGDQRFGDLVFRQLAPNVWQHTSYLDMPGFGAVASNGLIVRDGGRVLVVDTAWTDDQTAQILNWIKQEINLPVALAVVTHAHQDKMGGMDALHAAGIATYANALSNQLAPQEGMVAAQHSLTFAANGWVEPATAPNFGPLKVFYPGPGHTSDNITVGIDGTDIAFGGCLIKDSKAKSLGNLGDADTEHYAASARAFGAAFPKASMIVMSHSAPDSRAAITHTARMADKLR
Experiment: biochemical
Type: biochemical
Details: fluorescence assay with CCF2-FA substrate; read-out: NDM-1 IC50
With a cut-off of 20 nM, any IC50 strictly below it is called satisfied; any IC50 meeting it or above is called not satisfied.

-- ask Lab note: IC50 threshold 20 nM. Does this molecule come in strictly under it? CS(=O)(=O)c1ccc(-c2cccc(S(N)(=O)=O)c2-c2nn[nH]n2)cc1
-- reply satisfied

-- ask // query: CCOC(=O)N1CCC(c2cccc(S(N)(=O)=O)c2-c2nn[nH]n2)CC1
-- reply satisfied

-- ask // query: NS(=O)(=O)c1c(C(F)(F)F)ccc(-c2ccc(C3CCNCC3)nc2)c1-c1nnn[nH]1
-- reply satisfied

-- ask // query: NS(=O)(=O)c1nccc(N2CCC(N3CCCC3)CC2)c1-c1nnn[nH]1
-- reply not satisfied

-- ask // query: NS(=O)(=O)c1cccc(C2CCC(N3CCNCC3)CC2)c1-c1nn[nH]n1 (stereo not drawn)
-- reply not satisfied

-- ask // query: NS(=O)(=O)c1cccc(-c2cnn(CCN3CCOCC3)c2)c1-c1nnn[nH]1
-- reply not satisfied

-- ask // query: NS(=O)(=O)c1cccc(-c2ccc3[nH]c(=O)[nH]c3c2)c1-c1nn[nH]n1
-- reply satisfied

-- ask // query: NS(=O)(=O)c1c(C(F)(F)F)ccc(N2CCC3(CCCNC3)CC2)c1-c1nnn[nH]1
-- reply satisfied

-- ask // query: NS(=O)(=O)c1cccc(-c2nccs2)c1-c1nn[nH]n1
-- reply not satisfied

---

Target: IMP-1 (Serratia marcescens, UniProt P52699)
Sequence (P52699 whole entry, looked up): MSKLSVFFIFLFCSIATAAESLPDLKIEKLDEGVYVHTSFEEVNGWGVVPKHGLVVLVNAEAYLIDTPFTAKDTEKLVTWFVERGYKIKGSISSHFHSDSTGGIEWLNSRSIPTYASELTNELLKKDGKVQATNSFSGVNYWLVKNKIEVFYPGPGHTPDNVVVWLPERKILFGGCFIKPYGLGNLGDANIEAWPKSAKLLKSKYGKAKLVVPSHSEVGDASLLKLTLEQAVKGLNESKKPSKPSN
Test: biochemical
Assay type: biochemical
Conditions: fluorescence assay with CCF2-FA substrate; read-out: IMP-1 IC50
Readout label: IC50
Number plus unit, in that order.

-- ask Item under review: COc1ncc(-c2cccc(S(N)(=O)=O)c2-c2nn[nH]n2)cn1 [Example 91] . Reported IC50?
-- reply 830 nM

-- ask // query: C[C@@H]1NC(=O)O[C@H]1c1ccc(-c2cccc(S(N)(=O)=O)c2-c2nnn[nH]2)cc1 [Example 29]
-- reply 12.1 nM

-- ask // query: NS(=O)(=O)c1cccc(-c2cccs2)c1-c1nn[nH]n1 [Example 20]
-- reply 331 nM

-- ask // query: Cc1cccc(S(N)(=O)=O)c1-c1nnn[nH]1 [Example 150]
-- reply 1940 nM

-- ask // query: CN1CCN(c2cc(-c3cccc(S(N)(=O)=O)c3-c3nnn[nH]3)ccn2)CC1 [Example 116]
-- reply 226 nM

-- ask // query: NS(=O)(=O)c1nccc(N2CCC3(CC2)NCNC3=O)c1-c1nnn[nH]1 [Example 221]
-- reply 6170 nM

-- ask // query: NS(=O)(=O)c1cccc(C2=CCCOC2)c1-c1nn[nH]n1 [Example 63]
-- reply 1560 nM

-- ask // query: N#Cc1cccc(Cc2cccc(S(N)(=O)=O)c2-c2nnn[nH]2)c1 [Example 152]
-- reply 252 nM

-- ask // query: NS(=O)(=O)c1nccc(-c2ccc(C(=O)NC3CC3)cc2)c1-c1nnn[nH]1 [Example 185]
-- reply 1480 nM

-- ask // query: NS(=O)(=O)c1cccc(C#Cc2cccnc2)c1-c1nn[nH]n1 [Example 147]
-- reply 103 nM

-- ask // query: NCC1CCC(N2CCC(c3ccc(-c4ccc(C(F)(F)F)c(S(N)(=O)=O)c4-c4nnn[nH]4)cc3)CC2)CC1 (centres unmarked) [Example 787]
-- reply 1.71 nM

-- ask // query: NS(=O)(=O)c1c(C(F)(F)F)ccc(-c2ccc(C3CCN(C4CCNC4)CC3)cc2)c1-c1nnn[nH]1 (centres unmarked) [Example 789]
-- reply 0.472 nM

-- ask // query: COc1ccc2cc(-c3cccc(S(N)(=O)=O)c3-c3nnn[nH]3)cnc2n1 [Example 138]
-- reply 354 nM

-- ask // query: NS(=O)(=O)c1cccc(-c2cncs2)c1-c1nn[nH]n1 [Example 44]
-- reply 293 nM

-- ask // query: NS(=O)(=O)c1nccc(-c2ccc3c(c2)CC(=O)N3)c1-c1nn[nH]n1 [Example 201]
-- reply 1450 nM

-- ask // query: NS(=O)(=O)c1cccc(-c2ccc(C3CCNC3)cc2)c1-c1nnn[nH]1 (centres unmarked) [Example 180]
-- reply 113 nM

-- ask // query: CC(c1ccc(-c2cccc(S(N)(=O)=O)c2-c2nn[nH]n2)cc1)N1CCOCC1 (centres unmarked) [Example 4]
-- reply 11.3 nM

-- ask // query: NC1CCCC(N2CCC(c3ccc(-c4ccc(C(F)(F)F)c(S(N)(=O)=O)c4-c4nnn[nH]4)cc3)CC2)C1 (centres unmarked) [Example 798]
-- reply 2.35 nM

-- ask // query: NS(=O)(=O)c1cccc(-c2ccc(C(=O)N3CCOCC3)cc2)c1-c1nn[nH]n1 [Example 10]
-- reply 62.6 nM

-- ask // query: NS(=O)(=O)c1c(C(F)(F)F)ccc(-c2ccc(C3CCN(CCC4CCNCC4)CC3)cc2)c1-c1nnn[nH]1 [Example 793]
-- reply 1.02 nM

-- ask // query: NS(=O)(=O)c1nccc(N2CCC(N3CCNCC3)CC2)c1-c1nnn[nH]1 [Example 227]
-- reply 7070 nM

-- ask // query: NS(=O)(=O)c1cccc(-c2cnc3ccccc3c2)c1-c1nnn[nH]1 [Example 165]
-- reply 214 nM

-- ask // query: NS(=O)(=O)c1cccc(C2=CCOCC2)c1-c1nnn[nH]1 [Example 140]
-- reply 160 nM

---

Biological target: VIM-1 (Pseudomonas aeruginosa (strain ATCC 15692 / DSM 22644 / CIP 104116 / JCM 14847 / LMG 12228 / 1C / PRS 101 / PAO1), UniProt A0A0F7KYQ8)
Assay: Enzyme activity: determination of IC50, fluorescence assay with CCF2-FA substrate (VIM-1)
Assay type: biochemical
Conditions: VIM-1 enzyme, CCF2-FA fluorescence assay; read-out: VIM-1 IC50
Readout label: log10 of IC50 (log10 of the value in nM)
Parameter value (number): base-10 log of IC50 in nM.

-- ask Item under review: NS(=O)(=O)c1cccc(-c2ccc(CN3CCC(O)CC3)cc2)c1-c1nnn[nH]1 . Reported log10 of IC50?
-- reply 2.82

-- ask // query: NS(=O)(=O)c1c(CC2CNC2)ccc(-c2ccc(C3CCNCC3)cc2)c1-c1nn[nH]n1
-- reply 0.88

-- ask // query: NS(=O)(=O)c1cccc(-c2ccc(N3CCNCC3)nc2)c1-c1nn[nH]n1
-- reply 2.61

-- ask // query: Cc1nc2ccccc2n1Cc1ccc(-c2cccc(S(N)(=O)=O)c2-c2nnn[nH]2)cc1
-- reply 2.01

-- ask // query: Cc1ccc(-c2cc(-c3ccc(O)nc3)cc(S(N)(=O)=O)c2-c2nn[nH]n2)cc1
-- reply 2.29

-- ask // query: NC1CCC(Cc2ccc(-c3ccnc4ccccc34)c(-c3nn[nH]n3)c2S(N)(=O)=O)CC1 (stereo not drawn)
-- reply -0.32

-- ask // query: Cc1cnc(-c2cccc(S(N)(=O)=O)c2-c2nn[nH]n2)cn1
-- reply 2.12

-- ask // query: NC(=O)Cc1ccc(-c2ccc(C(F)(F)F)c(S(N)(=O)=O)c2-c2nn[nH]n2)cc1
-- reply -0.02

-- ask // query: C[N+]1(C)CCC(c2ccc(-c3ccc(C(F)(F)F)c(S(N)(=O)=O)c3-c3nn[nH]n3)cc2)C1 (stereo not drawn)
-- reply 0.13

-- ask // query: NS(=O)(=O)c1cccc(-c2cc3ccncc3s2)c1-c1nnn[nH]1
-- reply 1.28

-- ask // query: NS(=O)(=O)c1cccc(-c2ccc(CN3CCNC(=O)C3)cc2)c1-c1nnn[nH]1
-- reply 2.08

-- ask // query: NS(=O)(=O)c1c(C2CC2)ccc(-c2ccnc3ccccc23)c1-c1nn[nH]n1
-- reply -0.20
